# TARGET_UNDER_TEST: human TMEM106B (human, UniProt Q9NUM4 2-274); note: test concentration or dose not given here
# MEASUREMENT_NOTES: cell-based or functional assay
ASSAY_READOUT: % Protection from CPE (%)
Write the number in % without appending the unit.

IN: Any idea what its % Protection from CPE is? The binder is TM-7 (antibody, V domains shown) VH: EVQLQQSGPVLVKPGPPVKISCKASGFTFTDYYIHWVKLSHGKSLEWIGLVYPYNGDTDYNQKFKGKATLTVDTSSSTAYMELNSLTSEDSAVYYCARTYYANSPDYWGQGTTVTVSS VL: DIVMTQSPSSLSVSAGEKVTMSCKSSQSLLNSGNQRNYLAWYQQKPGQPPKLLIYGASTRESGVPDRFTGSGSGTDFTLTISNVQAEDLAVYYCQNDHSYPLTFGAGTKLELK
OUT: 15.8

IN: Any idea what its % Protection from CPE is? The binder is TM-6 (antibody, V domains shown, mouse hybridoma mAb) VH: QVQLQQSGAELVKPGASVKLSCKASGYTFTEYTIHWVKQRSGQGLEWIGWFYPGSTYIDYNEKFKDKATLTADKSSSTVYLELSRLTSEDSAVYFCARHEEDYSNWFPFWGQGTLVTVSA VL: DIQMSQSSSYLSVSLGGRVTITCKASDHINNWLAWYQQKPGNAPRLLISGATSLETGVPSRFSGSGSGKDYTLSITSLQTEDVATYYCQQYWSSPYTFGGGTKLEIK
OUT: 4.4

IN: Any idea what its % Protection from CPE is? The binder is TM-15 (antibody, V domains shown) VH: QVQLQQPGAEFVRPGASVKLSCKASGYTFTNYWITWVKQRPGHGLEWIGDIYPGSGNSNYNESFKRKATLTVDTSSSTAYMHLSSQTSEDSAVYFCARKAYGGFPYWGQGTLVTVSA VL: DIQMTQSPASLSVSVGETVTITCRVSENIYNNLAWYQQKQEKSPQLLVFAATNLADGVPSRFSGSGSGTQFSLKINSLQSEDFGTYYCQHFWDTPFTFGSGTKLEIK
OUT: 63.5
